Below: a set of entries, each annotated with reported log10(IC50).
- TARGET_ENTITY: Human DPP IV (Homo sapiens, UniProt P27487)
- Construct: Human serum containing DPP-IV enzyme was diluted finally 9- to 20-fold with assay buffer
- Sequence (P27487 39-766 limits assumed): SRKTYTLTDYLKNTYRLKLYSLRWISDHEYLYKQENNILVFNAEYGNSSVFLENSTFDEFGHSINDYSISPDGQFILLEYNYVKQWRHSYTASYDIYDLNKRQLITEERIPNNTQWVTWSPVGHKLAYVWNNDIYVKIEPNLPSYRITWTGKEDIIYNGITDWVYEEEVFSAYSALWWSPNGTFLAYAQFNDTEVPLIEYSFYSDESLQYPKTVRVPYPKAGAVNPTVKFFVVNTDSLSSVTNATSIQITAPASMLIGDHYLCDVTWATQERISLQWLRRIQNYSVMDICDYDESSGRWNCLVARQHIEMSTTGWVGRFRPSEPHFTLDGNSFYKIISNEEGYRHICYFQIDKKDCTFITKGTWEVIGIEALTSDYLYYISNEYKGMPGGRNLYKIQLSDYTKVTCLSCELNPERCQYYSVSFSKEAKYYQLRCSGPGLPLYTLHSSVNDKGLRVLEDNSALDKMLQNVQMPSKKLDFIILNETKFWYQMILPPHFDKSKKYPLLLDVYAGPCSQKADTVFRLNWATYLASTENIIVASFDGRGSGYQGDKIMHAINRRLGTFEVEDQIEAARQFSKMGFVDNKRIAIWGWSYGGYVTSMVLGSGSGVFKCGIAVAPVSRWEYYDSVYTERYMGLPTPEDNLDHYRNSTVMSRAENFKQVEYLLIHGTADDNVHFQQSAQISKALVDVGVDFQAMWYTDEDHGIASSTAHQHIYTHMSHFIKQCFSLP
- PROCEDURE_SUMMARY: In Vitro DPP-IV Inhibitory Effect Measurement Test
- RUN_PARAMETERS: human serum containing DPP-IV enzyme; substrate Glycyl-L-Proline 4-Methyl-Coumaryl-7-Amide 10 to 100 μM; room temperature; fluorescence 360/460 nm; read-out: Human DPP IV inhibiting activity IC50
Structures can show the parent of a compound that is named as a salt.
Log scale reminder: IC50 in nM, then log10 taken.

Query :: Entry Cn1c(=O)c2c(cc(N3CCC[C@@H](N)C3)n2Cc2ccccc2C#N)n(C)c1=O [Example 8] needs its log10(IC50) filled in; supply it.
Result :: 0.87

Query :: Entry Cn1c(=O)c2c(c(C#N)c(N3CCC[C@@H](N)C3)n2Cc2ccccc2Cl)n(C)c1=O [Example 2, hydrochloride] needs its log10(IC50) filled in; supply it.
Result :: 1.32

***
Query :: Entry CCOc1cccc(Oc2nc3c(C#N)c(N4CCC[C@@H](N)C4)n(Cc4ccccc4Cl)c3c(=O)n2C)c1 [Example 1, hydrochloride] needs its log10(IC50) filled in; supply it.
Result :: 1.88

Query :: Entry COc1ccc(-c2c(N3CCC[C@@H](N)C3)n(Cc3ccccc3Cl)c3c(=O)n(C)c(=O)n(C)c23)cc1 [Example 62] needs its log10(IC50) filled in; supply it.
Result :: 1.75

Query :: Entry Cn1c(=O)c2c(c(C(=O)NC3CCC3)c(N3CCC[C@@H](N)C3)n2Cc2cc(F)ccc2Cl)n(C)c1=O [Example 40] needs its log10(IC50) filled in; supply it.
Result :: 0.83

Query :: Entry Cn1c(=O)c2c(cc(N3CCC[C@@H](N)C3)n2Cc2ccccc2Cl)n(C)c1=O [Example 5, hydrochloride] needs its log10(IC50) filled in; supply it.
Result :: 1.18

Query :: Entry Cn1c(S(C)(=O)=O)nc2c(C#N)c(N3CCC[C@@H](N)C3)n(Cc3ccccc3Cl)c2c1=O [Example 4, hydrochloride] needs its log10(IC50) filled in; supply it.
Result :: 1.45

Query :: Entry Cn1cnc2c(C(=O)N3CCOCC3)c(N3CCC[C@@H](N)C3)n(Cc3cc(F)ccc3Cl)c2c1=O [Example 66] needs its log10(IC50) filled in; supply it.
Result :: 0.74

Query :: Entry COCCNC(=O)c1c(N2CCC[C@@H](N)C2)n(Cc2cc(F)ccc2Cl)c2c(=O)n(C)c(=O)n(C)c12 [Example 41] needs its log10(IC50) filled in; supply it.
Result :: 0.61

---

Below: a set of entries, each annotated with reported IC50.
- TARGET_ENTITY: Human DPP IV (Homo sapiens)
- Construct: Human serum containing DPP-IV enzyme was diluted finally 9- to 20-fold with assay buffer
- PROCEDURE_SUMMARY: In Vitro DPP-IV Inhibitory Effect Measurement Test
- RUN_PARAMETERS: human serum containing DPP-IV enzyme; substrate Glycyl-L-Proline 4-Methyl-Coumaryl-7-Amide 10 to 100 μM; room temperature; fluorescence 360/460 nm; read-out: Human DPP IV inhibiting activity IC50
Where a name gives a salt, the structure may show the parent alone.
Express it in nM; write the number only.

Below, 5 compounds whose answers are already recorded.
Query :: Recall the reported IC50 of COCc1c(N2CCC[C@@H](N)C2)n(Cc2ccccc2Cl)c2c(=O)n(C)c(=O)n(C)c12 [Example 56] on Human DPP IV (Homo sapiens) and write it down.
Result :: 31

Query :: Recall the reported IC50 of CCOC(=O)c1c(N)c(C#N)c(N2CCC[C@@H](N)C2)n1Cc1ccccc1Cl [Example 72, hydrochloride] on Human DPP IV (Homo sapiens) and write it down.
Result :: 1200

Query :: Recall the reported IC50 of Cn1c(=O)c2c(c(C(=O)NCC(F)(F)F)c(N3CCC[C@@H](N)C3)n2Cc2cc(F)ccc2Cl)n(C)c1=O [Example 42] on Human DPP IV (Homo sapiens) and write it down.
Result :: 5.7

Query :: Recall the reported IC50 of Cn1cnc2cc(N3CCC[C@@H](N)C3)n(Cc3cc(F)ccc3Cl)c2c1=O [Example 64] on Human DPP IV (Homo sapiens) and write it down.
Result :: 13

Query :: Recall the reported IC50 of Cn1c(=O)c2c(c(C(=O)NCC(O)CO)c(N3CCC[C@@H](N)C3)n2Cc2ccccc2Cl)n(C)c1=O (stereo partly drawn) [Example 32] on Human DPP IV (Homo sapiens) and write it down.
Result :: 7.5

Please find the next compound below.
Query :: Recall the reported IC50 of CC(=O)c1c(N2CCC[C@@H](N)C2)n(Cc2ccccc2Cl)c2c(=O)n(C)c(=O)n(C)c12 [Example 61] on Human DPP IV (Homo sapiens) and write it down.
Result :: 85
